# System under test: D3 dopaminergic receptors (Homo sapiens, UniProt P35462)
# Sequence (P35462 whole entry): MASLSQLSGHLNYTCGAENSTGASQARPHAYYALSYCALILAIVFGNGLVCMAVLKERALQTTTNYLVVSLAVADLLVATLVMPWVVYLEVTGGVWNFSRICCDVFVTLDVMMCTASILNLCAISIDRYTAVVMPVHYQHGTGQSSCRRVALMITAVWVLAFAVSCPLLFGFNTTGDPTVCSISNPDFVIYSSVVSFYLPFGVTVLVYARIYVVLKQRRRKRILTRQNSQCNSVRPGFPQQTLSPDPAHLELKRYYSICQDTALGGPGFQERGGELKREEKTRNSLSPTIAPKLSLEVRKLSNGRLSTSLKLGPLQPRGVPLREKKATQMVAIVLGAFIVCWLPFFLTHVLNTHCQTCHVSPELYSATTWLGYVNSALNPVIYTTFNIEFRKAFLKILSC
# Test method notes: Cellular functional assay, D3 dopaminergic receptors
# Assay type: cell-based
# Assay context: antagonism, D3 (h), CHO cells, stimulus dopamine (10 nM)
Readout label: D3 antag [%] (%)
The answer is to be given in %; state only the numeric part.

Worked examples, 4 compounds total:
- Compound: "O=S(=O)(NC1CN(CCOc2cccc3[nH]ccc23)C1)c1ccc2ccccc2c1"
  Unit text: "%"
  D3 antag [%]: 0
- Compound: "O=S(=O)(NC1CCN(CCCc2noc3cc(F)ccc23)C1)c1cc2ccccc2s1 (stereo not drawn)"
  Unit text: "%"
  D3 antag [%]: 82
- Compound: "COc1ccc2cc(S(=O)(=O)N[C@@H]3CCN(CCCc4noc5cc(F)ccc45)C3)ccc2c1"
  Unit text: "%"
  D3 antag [%]: 89
- Compound: "O=S(=O)(NC1CCN(CCCc2noc3cc(F)ccc23)C1)c1cc2ccc(F)cc2s1 (stereo not drawn)"
  Unit text: "%"
  D3 antag [%]: 89

Which D3 antag [%] is listed for `Cc1c(S(=O)(=O)NCC2CN(CCCc3noc4cc(F)ccc34)C2)sc2ccc(Cl)cc12` ? 55

I'd like to know its D3 antag [%]. The compound in question is `O=S(=O)(N[C@@H]1CCN(CCCc2noc3cc(F)ccc23)C1)c1cc2ccc(Cl)cc2s1` 97

I have this compound here, `O=S(=O)(NC1CN(CCOc2cccc3c2OCCO3)C1)c1cccc2ccccc12` , and I need its recorded D3 antag [%]. 38

GET /values?readout=D3 antag [%]&item= `O=S(=O)(NC1CCN(CCOc2cccc3[nH]ccc23)CC1)c1ccccc1` −33

Recorded D3 antag [%] of Cc1ccc2sc(S(=O)(=O)NC3CCN(CCCc4noc5cc(F)ccc45)C3)cc2c1 (stereo not drawn) , please. 107
